study system: T1, human CD33 (human, UniProt P20138 18-364)
T1 construct: Endogenous on HL-60 and HEL 92.1.7 AML cells, or recombinant on transfected HEK293F cells; The signal peptide is stated as amino acids 1-17; also called hCD33
T1 sequence (P20138 18-364): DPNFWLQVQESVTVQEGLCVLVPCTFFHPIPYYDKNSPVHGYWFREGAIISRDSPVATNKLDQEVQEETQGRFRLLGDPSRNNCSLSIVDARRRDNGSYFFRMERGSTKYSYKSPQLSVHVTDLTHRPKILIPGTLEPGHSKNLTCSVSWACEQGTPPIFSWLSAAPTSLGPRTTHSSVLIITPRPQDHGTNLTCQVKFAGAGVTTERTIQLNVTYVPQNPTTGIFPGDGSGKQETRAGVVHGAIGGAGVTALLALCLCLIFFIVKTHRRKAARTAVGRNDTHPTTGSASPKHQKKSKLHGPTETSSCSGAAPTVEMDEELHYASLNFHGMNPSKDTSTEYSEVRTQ
assay info: flow cytometry on HEL 92.1.7 cells; competition with 1 nM AlexaFluor-647 m2H12 (methods paragraph 148)
Consider the following binders; for each one, report its pEC50.
Numbers only, as −log10 of the molar value.

Past entries and their recorded results:
binder: HILE (antibody, V domains shown, Humanized antibody, heavy chain HI with light chain LE) VH: QVQLVQSGAEVKKPGASVKVSCKASGYTFTNYDINWVRQAPGQGLEWIGWIYPGDGSTKYNEKFKAKATLTADTSTSTAYMELRSLRSDDTAVYYCASGYEDAMDYWGQGTTVTVSS VL: DIQMTQSPSSLSASVGDRVTITCKASQDINSYLSWFQQKPGKAPKSLIYRANRLVDGVPSRFSGSGSGTDYTLTISSLQPEDFATYYCLQYDEFPLTFGGGTKVEIK
pEC50: 7.95
//
binder: HCLA (antibody, V domains shown, Humanized antibody, heavy chain HC with light chain LA) VH: QVQLVQSGAEVKKPGASVKVSCKASGYTFTNYDINWVRQAPGQGLEWMGWIYPGDGSTKYNEKFKARVTMTTDTSTSTAYMELRSLRSDDTAVYYCASGYEDAMDYWGQGTTVTVSS VL: DIQMTQSPSSLSASVGDRVTITCKASQDINSYLSWFQQKPGKAPKSLIYRANRLVDGVPSRFSGSGSGTDFTLTISSLQPEDFATYYCLQYDEFPLTFGGGTKVEIK
pEC50: 7.87
//
binder: HCLG (antibody, V domains shown, Humanized antibody, heavy chain HC with light chain LG) VH: QVQLVQSGAEVKKPGASVKVSCKASGYTFTNYDINWVRQAPGQGLEWMGWIYPGDGSTKYNEKFKARVTMTTDTSTSTAYMELRSLRSDDTAVYYCASGYEDAMDYWGQGTTVTVSS VL: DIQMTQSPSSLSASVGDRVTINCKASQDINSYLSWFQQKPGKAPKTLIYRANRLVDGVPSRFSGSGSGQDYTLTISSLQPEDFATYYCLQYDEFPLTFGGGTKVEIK
pEC50: 8.10

Exercise: Endpoint output: pEC50 of h2H12 antibody (2H12 HILG) (antibody, V domains shown, also called humanized 2H12; human 2H12 antibody) VH: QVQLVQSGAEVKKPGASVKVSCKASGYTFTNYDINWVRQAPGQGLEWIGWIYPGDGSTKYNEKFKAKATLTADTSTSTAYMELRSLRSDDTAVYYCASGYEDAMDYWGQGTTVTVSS VL: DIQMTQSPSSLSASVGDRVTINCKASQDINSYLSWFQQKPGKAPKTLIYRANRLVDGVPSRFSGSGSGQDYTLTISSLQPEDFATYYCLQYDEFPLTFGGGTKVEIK . Value?
Key: 8.11

From: patent US20150147316A1
